Consider the following compounds; for each one, report its melting point.

Could you report melting point for every entry in the following list?
1. CCOC(=O)Cn1ncc(-c2ccccn2)c1-c1ccccc1
2. Cc1ccc(C)n1Nc1nnc(N2CCOCC2)c2ccccc12
3. CC(C)(C)SC1CC(=O)N1CC(=O)CCc1ccccc1 (centres undefined)
4. CC(=O)Oc1ccc(/C=C/c2cccc(OC(C)=O)c2)cc1

1. 98 to 100 °C
2. 255 to 260 °C
3. 65 °C
4. 124 to 125 °C

Could you report melting point for every entry in the following list?
1. NC(=Nc1cccc(CNCCC(=O)Nc2ccc3c(c2)CCN3Cc2cccc3ccccc23)c1)c1cccs1
2. CCN1CCN(CCCN2CC[C@H](NC(=O)c3cc(Cl)c(N)cc3OC)[C@H](OC)C2)C1=O (relative stereo)
3. N#Cc1ccc(N(Cc2ccc3c(c2)NS(=O)(=O)O3)n2ccnc2)cc1
4. CC(C)(Sc1cc(C(C)(C)C)c(O)c(C(C)(C)C)c1)Sc1cc(C(C)(C)C)c(OCCC[C@H](O)CO)c(C(C)(C)C)c1
5. COc1cc(C)c2c(Oc3cccc(C(F)(F)F)c3)c(OC)cc(NC(C)CCCN3C(=O)c4ccccc4C3=O)c2n1 (centres undefined)

185 to 187 °C
113 °C
230 °C
68 to 71 °C
117 to 119 °C

====

Consider the following compounds; for each one, report its melting point.

As a guide, the following entries are already answered.
compound: O=C(NCc1ccc(Cl)cc1)c1n[nH]c2ccccc2c1=O
melting point: 269 to 271 °C
//
compound: N=C(N)Nc1nc2c(s1)CCN(C(=O)c1ccc(NC(=O)c3ccccc3-c3ccccc3)cc1)c1ccccc1-2
melting point: > 250 °C

Could you report melting point for every entry in the following list?
1. CC1(C)CC(=O)C2=C(C1)NC1=C(C(=O)CC(C)(C)C1)C2c1cccc(OCc2ccncc2)c1
2. CCC(=O)Nc1ccc2oc3c(c2c1)CCCC3
3. CCCCCCCCCCCCCCCCCCOCC(O)Cn1cc(F)c(N)nc1=O (stereo not given)
4. O=C(N1CCC(n2ccc3ccccc32)CC1)C(F)(F)F

1. 156 to 158 °C
2. 164 to 165 °C
3. 118 to 119 °C
4. 130 to 132 °C

====

Consider the following molecules; for each one, report its melting point.

As a guide, the following entries are already answered.
molecule: COc1cccc2c(COCCC(c3ccccc3)c3ccccc3)coc12
parameterMeasured: melting point
reportedMeasurement: 147 to 149 °C

molecule: CCOC(=O)c1c[nH]c2nc(N3CCN(C(=O)OCC)CC3)c(F)cc2c1=O
parameterMeasured: melting point
reportedMeasurement: 279 to 281 °C

molecule: CCc1nnc(-c2ccc(F)c(F)c2Nc2ccc(I)cc2F)o1
parameterMeasured: melting point
reportedMeasurement: 97 to 98 °C

Could you report melting point for every entry in the following list?
1. CCOC(=O)c1cnc2c(S)cccn2c1=O
2. CC(=O)OCC1OC(Oc2nc[nH]c2C(N)=O)C(OC(C)=O)C1OC(C)=O (stereo unspecified)
3. COc1cc2cc(C3CCCC3)sc2c(Cl)c1Cl
4. CCCc1c(OCCCOc2ccc(C(=O)C(=O)O)cc2)ccc(C(C)=O)c1O
5. CCn1cc(Br)nc(S(=O)(=O)Cc2ccc(Cl)cc2)c1=O
6. CSC(C(=O)O)c1cc(=O)oc2cc(O)c(O)cc12 (stereo unspecified)

1: 151 to 152 °C; 2: 132 to 134 °C; 3: 59.5 to 60 °C; 4: 129 to 130 °C; 5: 145 to 147 °C; 6: 254 to 256 °C

Could you report melting point for every entry in the following list?
1. N#CC(=NNc1c(Cl)cc(C(F)(F)F)cc1Cl)c1ccc(C#N)cc1
2. Cc1cc(/C=C/C(c2cc(Cl)cc(Cl)c2)C(F)(F)F)ccc1C(=O)NCc1cncnc1 (stereo unspecified)
3. CC(O)c1cn(C(c2ccccc2)(c2ccccc2)c2ccccc2)cn1 (stereo unspecified)
4. CC1=NN=C(C=Cc2cccc(F)c2)c2cc3c(cc2C1)OCO3
5. COc1cc(Nc2c(C#N)cnc3cc(OCc4ccccc4)c(OC)cc23)c(Cl)cc1Cl
6. CCC(C)C(CO)NC(=O)CC(O)C(CC(C)C)NC(=O)C(Cc1cccs1)NC(=O)C(Cc1cccc2ccccc12)NC(=O)OCc1ccccc1 (mixture of isomers)
7. Cc1nc(N)c2nc(-c3ccccc3)cc-2[nH]1
8. Cc1ccc(Br)cc1NC(=O)NCCCNCCCCl

1: 186 to 187 °C; 2: 141 to 144 °C; 3: 156 to 157 °C; 4: 161 to 162 °C; 5: 198 to 200 °C; 6: 160 to 162 °C; 7: > 280 °C; 8: 145 to 148 °C

Could you report melting point for every entry in the following list?
1. Cc1oc2c(NC(=O)c3c(C(=O)OC(C)C)cccc3[N+](=O)[O-])cccc2c1C(C)(C)O
2. CCNC(=O)C1=CSC(Cl)N1[Si](C)(C)C (stereo unspecified)
3. NC(=O)COc1ccc2sc(S(N)(=O)=O)cc2c1
4. CNC(=O)Nc1ccc(C2=NNC(=O)CC2C)cn1 (stereo unspecified)

118 to 120 °C
101 to 103 °C
197 to 198 °C
257 to 259 °C

This collection of values is drawn from a melting point compilation (Tetko et al.; mined from patent text by program, amines drawn as free bases though some values may be those of a salt).
